Tested on: MCF7 breast
Test: NCI tumour cell line growth inhibition, 48 h
Parameter: TGI. Scope: all listed entries.

The cases that follow already have their TGI on record.
[in] Please report the measured TGI for `CCCCCOC(=O)C(=O)Nc1n[nH]nc1C(N)=O`
[out] > 100 µM

[in] State its TGI for this molecule: `O=C(O)CCC(=O)C(=O)O`
[out] > 100 µM

[in] Please give the documented TGI of `CN1CCN(C(=S)N(C(=O)c2cccs2)c2ccccc2)CC1`
[out] > 100 µM

[in] Give TGI for CC1OC(=O)C2CC3CCCCC3C(/C=C/C3CCCC(C)N3C)C12 (stereo unspecified)
[out] > 100 µM

[in] Please supply the value of reported TGI for the item `COc1ccc(-c2nc3ccc([N+](=O)[O-])cc3c(=O)[nH]2)cc1`
[out] > 100 µM

Now consider a different molecule.
[in] Annotate the molecule `COc1cc(-c2cncn2-c2ccc(-c3nc4ccc(F)cc4s3)cc2)ccc1F` with its measured TGI.
[out] > 100 µM

###

System: CAKI-1 renal
Assay: NCI tumour cell line growth inhibition, 48 h
Documented TGI across a set of compounds
The reply should contain only the number, in µM.

Example entries and their recorded answers appear below.
[in] Using known records, supply TGI for `O=C(c1ccco1)N(Cc1cccnc1)C(=S)N(Cc1cccnc1)C(=O)c1ccco1`
[out] 45.4

[in] Specify measured TGI for `Cc1ccc2c(NCCCN(C)C)c3c(C)nn(C)c3nc2c1` .
[out] 38.1

[in] Supply recorded TGI for `N#Cc1c(-c2ccccc2)n([O-])c2ccccc2[n+]1=O` here.
[out] 34.7

[in] Give the measured TGI for `COc1ccc(/C=C2\CS(=O)(=O)C/C(=C\c3ccc(OC)cc3)C2=O)cc1`
[out] 6.1

[in] Please report the measured TGI for CCC(/C=C(C)/C=C/C(=O)c1c(O)c(-c2ccc(O)cc2)c[nH]c1=O)CO (configuration not stated)
[out] 47.5

Continuing:
[in] In one line, give reported TGI of the entry `O=C1c2[nH]cc(CN3CCN(CCO)CC3)c2C(=O)c2c1c(O)c1ccccc1c2O` .
[out] 14.2

[in] Please look at this compound and report its TGI: COC(=O)C(Cc1c[nH]c2ccccc12)NC(=O)C(Cc1c[nH]c2ccccc12)NC(=O)OCc1ccccc1 (configuration not stated)
[out] 40

[in] Please look at this compound and report its TGI: `O=c1ccc(N=Nc2ccccc2)ccc1Cl`
[out] 25.8

[in] Please list TGI recorded for the compound `C=C1C(=O)O[C@H]2[C@H]1CC/C(COC(=O)NCc1[nH]nc3ccccc13)=C\CC[C@@]1(C)O[C@@H]21`
[out] 3.91

[in] Look up TGI of `O=[N+]([O-])c1cc([N+](=O)[O-])c(N2CCCC2)cc1NN=C(c1ccc(O)cc1)c1ccc(O)cc1` and report it.
[out] 21.1

[in] Give TGI for the following compound: `O=C(Cc1ccc(OCc2cccc(Cl)c2)cc1)NO`
[out] 68.2

[in] Look up and state reported TGI for CC1=C(C(=O)Nc2ccc(Cl)c(Cl)c2)C(c2ccccc2Cl)NC(=S)N1 (configuration not stated)
[out] 21.5

[in] Give TGI for `Cc1nn(-c2ccccc2)c(-n2ccnc2)c1/C=N/Nc1nc(-c2ccc(Cl)c(Cl)c2)cs1`
[out] 20

[in] Report TGI for `Cn1cnc([N+](=O)[O-])c1Sc1nc2ncccc2[nH]1`
[out] 85.6

[in] Complete the entry with TGI for `CCOC(=O)c1c2c(n(Cc3ccc(Cl)cc3Cl)c1C)-c1nc(Cc3ccccc3)[nH]c1C(=O)C2=O`
[out] 4.01

[in] For `O=CCOCc1cc2c(cc1Br)OCO2` , write its TGI.
[out] 42.7

[in] Consider the compound `COc1ccc(NC(=O)C(=O)NO)c(OC)c1` . State its measured TGI.
[out] 27.3

[in] Recall and state the measured TGI for `CN1CN(c2ccccc2)C2(CCN(Cc3nc4ccccc4s3)CC2)C1=O` .
[out] 49.6

###

System: U251 CNS
Test: NCI tumour cell line growth inhibition, 48 h
Items are presented alongside their recorded TGI.
Respond with the bare value in µM.

Observe how each entry below is paired with its result.
[in] Name the recorded TGI of the item `CCN(CC)CCn1c(N)c(-c2nc3ccccc3n2C)c2nc(C#N)c(C#N)nc21` in your answer.
[out] 4.06

[in] Let me know recorded TGI for CC(=O)O[C@H]1CC2C(C3CC[C@H](C(C)CCC(N)=O)[C@]31C)[C@H](OC(C)=O)C[C@@H]1CC3(CC[C@]21C)OOC1(CCC(C)CC1)OO3 (some centres not stated) , thanks.
[out] 3.78

Others:
[in] Indicate the recorded TGI value for this compound: `COc1ccc(NC(=O)C(=O)NO)c(OC)c1`
[out] 30.5

[in] Tell us which TGI value is on record for `COc1ccc(/C=C2\CS(=O)(=O)C/C(=C\c3ccc(OC)cc3)C2=O)cc1`
[out] 1.85

###

Test system: SNB-75 CNS
Experiment: NCI tumour cell line growth inhibition, 48 h
The entries below come with measured TGI values attached.
I only need the number, in µM, no unit after it.

Reference set (6 entries):
[in] Identify TGI associated with the molecule CN(N=O)C(=O)N(N)CCCCC(NC(=O)OCc1ccccc1)C(=O)OCc1ccccc1 (stereo not given)
[out] 62.8

[in] Please give measured TGI of the following entry: `CCN(CCCNC(=O)Cc1cc(=O)oc2cc(N(C)C)ccc12)CCNc1ccnc2cc(Cl)ccc12`
[out] 25.6

[in] Identify measured TGI associated with `CCCCCCCCCCCCCCCCNC(=O)OC(C)C`
[out] 18.1

[in] Indicate its recorded TGI; the molecule in question is `CCN(CC)CCn1c(=O)c2ccccc2n2c3c(=O)n(C)c(=O)n(C)c3nc12`
[out] 7.46

[in] Kindly indicate its recorded TGI. Item: `COc1ccc(CN2CCc3c(Sc4ccccc4)nc(N)nc3C2=O)c(OC)c1`
[out] 19.7

[in] Supply TGI value. Item: CCC(/C=C(C)/C=C/C(=O)c1c(O)c(-c2ccc(O)cc2)c[nH]c1=O)CO (stereo not given)
[out] 24.5

***
[in] Please list TGI recorded for the molecule `Cn1c2ccccc2c(=NNc2ccc(S(N)(=O)=O)cc2)c2ccccc21`
[out] 46.6

[in] Please list TGI recorded for the molecule `Cc1ccc(N=NC(=O)NNc2ccc(C)c([N+](=O)[O-])c2)cc1[N+](=O)[O-]`
[out] 95.9

###

In this section we review reported TGI values for a set of molecules.
System: HCC-2998 colon
Experiment: NCI tumour cell line growth inhibition, 48 h

[in] Give the reported TGI for this molecule. `COc1c(-c2nc3nc(N4CCN(C)CC4)ccc3[nH]2)cc(OC)c2c1nc(CO)n2C`
[out] > 100 µM

***
[in] Please give the documented TGI of `Cn1c([N+](=O)[O-])cnc1CN1CCN(CCO)CC1`
[out] > 100 µM

[in] Please supply the value of reported TGI for the item `CC1(C)[C@@H](Cn2nnc3c(N)ncnc32)CC[C@@]1(C)CO`
[out] 29 µM

[in] Let me know recorded TGI for `O=S(=O)(O)c1ccc2c(N=Nc3cccc4ccccc34)c(O)c(S(=O)(=O)O)cc2c1` , thanks.
[out] > 100 µM

[in] Using the record for `O=C1c2[nH]cc(CN3CCN(CCO)CC3)c2C(=O)c2c1c(O)c1ccccc1c2O` , state its measured TGI.
[out] 21.1 µM

###

System: NCI-H23 lung
Assay: NCI tumour cell line growth inhibition, 48 h; in the data active = GI50 below about 0.43 µM; inactive = the rest
Please answer using one outcome listed in active, inactive

[in] Name the outcome recorded for `CN1CCN(Cc2ccc(NC(=O)c3nc4ccc5[nH]ncc5c4c4c3CCCC4)cc2C(F)(F)F)CC1` in the assay.
[out] inactive

[in] Hi team, can someone confirm the assay call for `CC[C@@]1(O)C(=O)OCc2c1cc1n(c2=O)Cc2cc3c([N+](=O)[O-])c(OC)ccc3nc2-1` ?
[out] active

Continuing:
[in] What did this assay record as the result for `O=c1ccc(N=Nc2ccccc2)ccc1Cl` ?
[out] inactive

[in] Any idea what this test logged for `COC(=O)[C@@H]1CCCN1C(=O)[C@@H]1CCCN1C(=O)[C@H](Cc1ccccc1)NC(=S)Nc1cc(C(F)(F)F)cc(C(F)(F)F)c1` ?
[out] inactive

###

System: SW-620 colon
Assay: NCI tumour cell line growth inhibition, 48 h
Recorded TGI values for a group of compounds are listed next.
The figure you give is taken to be in µM; do not add the unit.

Worked examples, 2 compounds total:
[in] Assign TGI to the following record: `CCOC(=O)c1ccc(NC(=O)Nc2nccs2)cc1`
[out] 35.6

[in] Look up and state reported TGI for `CCCCCCCCCCCCCCCCNC(=O)OC(C)C`
[out] 2.87

Now for another entry.
[in] Specify TGI for `C/C=C(/C(=C/C)c1ccc(O)cc1)c1ccc(O)cc1` and stop.
[out] 14.9
